target: SP_0916 (arginine decarboxylase, ADC) (Streptococcus pneumoniae); assay: Inhibition of decarboxylase activities of recombinant SP_0916 (LC-MS); format: biochemical; details: read-out: DFMA IC50
PARAMETER MEASURED: pIC50
Value format note: pIC50 is -log10 of concentration (mol/L); just state the number.

Asked: Please look at `N=C(N)NCCC[C@](N)(C(=O)O)C(F)F` and tell me its recorded pIC50 on SP_0916 (arginine decarboxylase, ADC) (Streptococcus pneumoniae).
Given back: 4.39

* * *

biological target: SP_0916 (arginine decarboxylase, ADC) (Streptococcus pneumoniae); experiment: Inhibition of decarboxylase activities of recombinant SP_0916 (LC-MS); assay type: biochemical; details: lysine to cadaverine; 10 mM substrate, 15 min, 37 °C; read-out: DFMA IC50
PARAMETER MEASURED: pIC50
Value format note: pIC50 is -log10 of concentration (mol/L); just state the number.

Asked: Write down pIC50 measured for item N=C(N)NCCC[C@](N)(C(=O)O)C(F)F [DFMA, α-difluoromethylarginine]
Given back: 4.25

* * *

target: SP_0916 (arginine decarboxylase, ADC) (Streptococcus pneumoniae, UniProt A0A0H2UPK4); assay: Inhibition of decarboxylase activities of recombinant SP_0916 (LC-MS); assay type: biochemical; conditions: lysine to cadaverine; 10 mM substrate, 15 min, 37 °C; read-out: DFMO IC50
Sequence (A0A0H2UPK4 entry or part of it): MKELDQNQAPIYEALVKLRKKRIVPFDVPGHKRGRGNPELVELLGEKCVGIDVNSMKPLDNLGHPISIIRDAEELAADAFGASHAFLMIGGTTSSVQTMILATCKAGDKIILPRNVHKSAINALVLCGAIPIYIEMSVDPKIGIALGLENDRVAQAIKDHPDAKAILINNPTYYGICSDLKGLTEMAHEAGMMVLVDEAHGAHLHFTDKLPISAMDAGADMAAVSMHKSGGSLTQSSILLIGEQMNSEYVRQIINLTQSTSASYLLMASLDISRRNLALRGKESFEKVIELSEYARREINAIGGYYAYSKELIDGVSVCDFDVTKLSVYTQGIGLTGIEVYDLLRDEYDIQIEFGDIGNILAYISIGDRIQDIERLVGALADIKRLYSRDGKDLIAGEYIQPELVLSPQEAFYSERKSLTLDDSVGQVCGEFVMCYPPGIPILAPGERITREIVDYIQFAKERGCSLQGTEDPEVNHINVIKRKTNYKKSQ
PARAMETER MEASURED: pIC50
Value format note: pIC50 is -log10 of concentration (mol/L); just state the number.

Asked: Please look at `NCCC[C@](N)(C(=O)O)C(F)F` and tell me its recorded pIC50 on SP_0916 (arginine decarboxylase, ADC) (Streptococcus pneumoniae, UniProt A0A0H2UPK4).
Given back: 2.09

* * *

molecular target: SP_0916 (arginine decarboxylase, ADC) (Streptococcus pneumoniae, UniProt A0A0H2UPK4); experiment: Inhibition of decarboxylase activities of recombinant SP_0916 (LC-MS); format: biochemical; conditions: arginine to agmatine; 10 mM substrate, 15 min, 37 °C; read-out: DFMA IC50
PARAMETER MEASURED: IC50
Put your answer as a value accompanied by its unit after it.

Asked: Write down IC50 measured for item `N=C(N)NCCC[C@](N)(C(=O)O)C(F)F`
Given back: 1100 nM

* * *

target: SP_0916 (arginine decarboxylase, ADC) (Streptococcus pneumoniae, UniProt A0A0H2UPK4); test: Inhibition of decarboxylase activities of recombinant SP_0916 (LC-MS); format: biochemical; details: DFMO IC50, ornithine to putrescine; 10 mM substrate, 15 min, 37 °C
PARAMETER MEASURED: pIC50
Value format note: pIC50 is -log10 of concentration (mol/L); just state the number.

Asked: Please look at NCCC[C@](N)(C(=O)O)C(F)F [DFMO, α-difluoromethylornithine] and tell me its recorded pIC50 on SP_0916 (arginine decarboxylase, ADC) (Streptococcus pneumoniae, UniProt A0A0H2UPK4).
Given back: 1.58

* * *

target: SP_0916 (arginine decarboxylase, ADC) (Streptococcus pneumoniae, UniProt A0A0H2UPK4); assay: Inhibition of decarboxylase activities of recombinant SP_0916 (LC-MS); assay type: biochemical; conditions: arginine to agmatine; 10 mM substrate, 15 min, 37 °C; read-out: DFMO IC50
PARAMETER MEASURED: IC50 (mM)
State just the number; it will be interpreted in mM.

Asked: Write down IC50 measured for item NCCC[C@](N)(C(=O)O)C(F)F [DFMO, α-difluoromethylornithine]
Given back: 75.1
